Test system: A549 (lung) human cancer cell line
PROTOCOL TEXT: MTT cytotoxicity assay, A549
Assay type: cell-based
CONDITION CONTEXT: Homo sapiens, A549, 48 h

| COMPOUND SMILES | TEST SYSTEM | IC50 |
| --- | --- | --- |
| C=CCn1cc(-c2nc3ccccc3s2)c2cc(-c3ccc4c5c(cccc35)C(=O)N(CCN(CC)CC)C4=O)ccc21 | A549 (lung) human cancer cell line | 0.81 µM |
| CCCn1cc(-c2nc3ccccc3s2)c2cc(-c3ccc4c5c(cccc35)C(=O)N(N)C4=O)ccc21 | A549 (lung) human cancer cell line | 0.84 µM |
| C=CCn1cc(-c2nc3ccccc3s2)c2cc(-c3ccc4c5c(cccc35)C(=O)N(CCN(C)C)C4=O)ccc21 | A549 (lung) human cancer cell line | 1.02 µM |
| C=CCn1cc(-c2nc3ccccc3s2)c2cc(-c3ccc4c5c(cccc35)C(=O)N(CCN)C4=O)ccc21 | A549 (lung) human cancer cell line | 3.06 µM |

----------
Reported melting point values are given for each entry in this list.

| COMPOUND | melting point |
| --- | --- |
| C=CCn1cc(-c2nc3ccccc3s2)c2cc(-c3ccc4c5c(cccc35)C(=O)N(CCN3CCOCC3)C4=O)ccc21 [Compound 14] | 285 to 288 °C |
| C=CCn1cc(-c2nc3ccccc3s2)c2cc(-c3ccc4c5c(cccc35)C(=O)N(CCN(C)C)C4=O)ccc21 [Compound 10] | 274 to 277 °C |
| C=CCn1cc(-c2nc3ccccc3s2)c2cc(-c3ccc4c5c(cccc35)C(=O)NC4=O)ccc21 [Compound 16] | 277 to 280 °C |
| C=CCn1cc(-c2nc3ccccc3s2)c2cc(-c3ccc4c5c(cccc35)C(=O)N(Cc3ccccc3)C4=O)ccc21 [Compound 17] | 281 to 284 °C |
| C=CCn1cc(-c2nc3ccccc3s2)c2cc(-c3ccc4c5c(cccc35)C(=O)N(CCN3CCNCC3)C4=O)ccc21 [Compound 20] | 294 to 297 °C |
| C=CCn1cc(-c2nc3ccccc3s2)c2cc(-c3ccc4c5c(cccc35)C(=O)N(CCN(CC)CC)C4=O)ccc21 [Compound 11] | 281 to 284 °C |
| C=CCn1cc(-c2nc3ccccc3s2)c2cc(-c3ccc4c5c(cccc35)C(=O)N(CCCC)C4=O)ccc21 [Compound 8] | 277 to 280 °C |

----------
Reported log10 of IC50 values are given for each entry in this list.
Test system: A549 (lung) human cancer cell line
PROTOCOL TEXT: MTT cytotoxicity assay, A549
Type: cell-based
CONDITION CONTEXT: Homo sapiens, A549, 48 h
ASSAY ENDPOINT: log10 of IC50 (log10 of the value in µM)

| COMPOUND | RECORDED VALUE |
| --- | --- |
| C=CCn1cc(-c2nc3ccccc3s2)c2cc(-c3ccc4c5c(cccc35)C(=O)N(Nc3ccccc3)C4=O)ccc21 | -0.02 |
| C=CCn1cc(-c2nc3ccccc3s2)c2cc(-c3ccc4c5c(cccc35)C(=O)OC4=O)ccc21 | -0.35 |
| C=CCn1cc(-c2nc3ccccc3s2)c2cc(-c3ccc4c5c(cccc35)C(=O)N(CCN3CCOCC3)C4=O)ccc21 | 0.05 |
| COc1cc([C@@H]2c3cc4c(cc3[C@@H](O[C@@H]3O[C@@H]5CO[C@@H](C)O[C@H]5[C@H](O)[C@H]3O)[C@H]3COC(=O)[C@H]23)OCO4)cc(OC)c1O [Etoposide, reference compound] | -1.00 |
| C#CCN1C(=O)c2cccc3c(-c4ccc5c(c4)c(-c4nc6ccccc6s4)cn5CC=C)ccc(c23)C1=O | -0.51 |
| C=CCN1C(=O)c2cccc3c(-c4ccc5c(c4)c(-c4nc6ccccc6s4)cn5CC=C)ccc(c23)C1=O | 0.28 |
| C=CCn1cc(-c2nc3ccccc3s2)c2cc(-c3ccc4c5c(cccc35)C(=O)N(C3CCCCC3)C4=O)ccc21 | 0.17 |
| C=CCn1cc(-c2nc3ccccc3s2)c2cc(-c3ccc4c5c(cccc35)C(=O)NC4=O)ccc21 | 0.28 |
| C=CCn1cc(-c2nc3ccccc3s2)c2cc(-c3ccc4c5c(cccc35)C(=O)N(CCN3CCNCC3)C4=O)ccc21 | -0.12 |
| C=CCn1cc(-c2nc3ccccc3s2)c2cc(-c3ccc4c5c(cccc35)C(=O)N(CCO)C4=O)ccc21 | -0.85 |
| C=CCn1cc(-c2nc3ccccc3s2)c2cc(-c3ccc4c5c(cccc35)C(=O)N(Cc3ccccc3)C4=O)ccc21 | 0.30 |
| C=CCn1cc(-c2nc3ccccc3s2)c2cc(-c3ccc4c5c(cccc35)C(=O)N(CCCC)C4=O)ccc21 | 0.08 |
